Here the recorded IC50 is given for each entry.
Target: MTHFD1 recombinant human enzyme (Homo sapiens)
Sequence (P11586 2-291 limits assumed): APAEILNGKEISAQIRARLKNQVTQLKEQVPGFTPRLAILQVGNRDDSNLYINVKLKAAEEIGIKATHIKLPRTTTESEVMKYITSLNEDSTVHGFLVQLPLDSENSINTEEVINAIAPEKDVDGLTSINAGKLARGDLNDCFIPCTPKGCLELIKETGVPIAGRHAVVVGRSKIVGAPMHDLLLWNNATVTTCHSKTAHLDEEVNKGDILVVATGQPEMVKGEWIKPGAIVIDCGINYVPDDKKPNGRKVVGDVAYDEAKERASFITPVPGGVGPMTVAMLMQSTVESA
Test: MTHFD1 inhibition assay (NAD(P)H-Glo luminescence)
Details: MTHFD1 IC50, recombinant human enzyme 200 nM, NADP, band

molecule	IC50
COC[C@H]1CN(c2cc(C)c3c4c(c(=O)oc3c2C)CN(C(=O)c2cc(OC)c(C(=O)NS(=O)(=O)N3C5CCC3CC5)cc2F)CC4)CCN1C [Example 248]	100 to 1000 nM
COC[C@H]1CN(c2cc(C)c3c4c(c(=O)oc3c2C)CN(C(=O)c2ccc(C(=O)NS(=O)(=O)C3(C)CC3)c(N(C)C)c2F)CC4)CCN1C [Example 136]	100 to 1000 nM
COC[C@H]1CN(c2cc(Cl)c3c4c(c(=O)oc3c2C)CN(C(=O)c2ccc(C(=O)NS(=O)(=O)N3CCC[C@H]3COC)c(OC)c2)CC4)CCN1C [Example 283]	1000 to 5000 nM
COC[C@H]1CN(c2ccc3c4c(c(=O)oc3c2Cl)CN(C(=O)c2ccc(C(=O)NS(=O)(=O)N(C)C(C)C)c(OC3CCCC3)c2F)CC4)CCN1C [Example 29]	10 to 100 nM
COC[C@H]1CN(c2cc(C)c3c4c(c(=O)oc3c2C)CN(C(=O)c2cc(OC3CC3)c(C(=O)NS(=O)(=O)N3CCCC3)cc2F)CC4)CCN1C [Example 263]	10 to 100 nM
CCc1c(C(=O)NS(=O)(=O)N2C3CCC2CC3)ccc(C(=O)N2CCc3c(c(=O)oc4c(C)c(N5CCN(C)[C@@H](COC)C5)cc(C)c34)C2)c1F [Example 242]	100 to 1000 nM
